# test.description: activity coefficient (dimensionless); of the first substance listed, at infinite dilution; xn = mol fraction of the nth substance listed
# experimental.conditions: 303.15 K; Liquid; dilutor; x1 = 0
Quick rule: activity coefficient of at least 6 means yes (1), below that means no (0).

# example entries with known answers
compound | qualitative.label
C=CCCC [1-pentene] + CCCCCC[n+]1ccn(C)c1.O=S(=O)([N-]S(=O)(=O)C(F)(F)F)C(F)(F)F | no (0)
C1=CCCCC1 [cyclohexene] + CCCCCCCCn1cc[n+](C)c1.O=S(=O)([N-]S(=O)(=O)C(F)(F)F)C(F)(F)F | no (0)
CCCCCC [hexane] + CCCCCC[n+]1ccn(C)c1.O=S(=O)([N-]S(=O)(=O)C(F)(F)F)C(F)(F)F | yes (1)
C=CCCCC [hex-1-ene] + CCCC[N+]1(C)CCCC1.O=S(=O)([N-]S(=O)(=O)C(F)(F)F)C(F)(F)F | yes (1)
C=CCCCCCC [oct-1-ene] + CCCC[N+]1(C)CCCC1.O=S(=O)([N-]S(=O)(=O)C(F)(F)F)C(F)(F)F | yes (1)

Asked: Quick check: does CCCCCCC [heptane] + CCCCCC[n+]1ccn(C)c1.O=S(=O)([N-]S(=O)(=O)C(F)(F)F)C(F)(F)F have activity coefficient greater than or equal to 6?
Given back: yes (1)

###

# test.description: activity coefficient (dimensionless); of the first substance listed, at infinite dilution; xn = mol fraction of the nth substance listed
# experimental.conditions: 323.15 K; Liquid; dilutor; x1 = 0
Parameter: activity coefficient. Scope: all listed entries.
Reply: number alone, nothing else.

molecule | activity coefficient
C=CCCCCCC [oct-1-ene] + CCCC[N+]1(C)CCCC1.O=S(=O)([N-]S(=O)(=O)C(F)(F)F)C(F)(F)F | 13.3
C=CCCCC [hex-1-ene] + CCCCCCCCn1cc[n+](C)c1.O=S(=O)([N-]S(=O)(=O)C(F)(F)F)C(F)(F)F | 3.27
C=CCCCCCC [oct-1-ene] + CCCCCC[n+]1ccn(C)c1.O=S(=O)([N-]S(=O)(=O)C(F)(F)F)C(F)(F)F | 7.92

The molecule listed as CC(C)=O [acetone] + CCCCCC[n+]1ccn(C)c1.O=S(=O)([N-]S(=O)(=O)C(F)(F)F)C(F)(F)F shows activity coefficient equal to 0.34

For record c1ccccc1 [benzene] + CCCC[N+]1(C)CCCC1.O=S(=O)([N-]S(=O)(=O)C(F)(F)F)C(F)(F)F the listed activity coefficient is 0.88

Measured activity coefficient, C=CCCCCC [1-heptene] + CCCCCCCCn1cc[n+](C)c1.O=S(=O)([N-]S(=O)(=O)C(F)(F)F)C(F)(F)F : 4.2

Lab note: C=CCCCCC [1-heptene] + CCCCCC[n+]1ccn(C)c1.O=S(=O)([N-]S(=O)(=O)C(F)(F)F)C(F)(F)F gave activity coefficient of 5.96

###

# test.description: activity coefficient (dimensionless); of the first substance listed, at infinite dilution; xn = mol fraction of the nth substance listed
# experimental.conditions: 303.15 K; Liquid; Chromatography; x1 = 0
Measured activity coefficient, listed per entry.
The answer should be written as a number, with no unit following it.

Previously resolved entries follow.
molecule | activity coefficient
c1ccccc1 [benzene] + CCCCCCCCn1cc[n+](C)c1.O=S(=O)([N-]S(=O)(=O)C(F)(F)F)C(F)(F)F | 0.63
CCCCC [pentane] + CCCCCCCCn1cc[n+](C)c1.O=S(=O)([N-]S(=O)(=O)C(F)(F)F)C(F)(F)F | 4.07
C=CCCCCC [1-heptene] + CCCCCC[n+]1ccn(C)c1.O=S(=O)([N-]S(=O)(=O)C(F)(F)F)C(F)(F)F | 6.46
O [water] + CCCCCCCCn1cc[n+](C)c1.O=S(=O)([N-]S(=O)(=O)C(F)(F)F)C(F)(F)F | 3.89
CC(C)OC(C)C [diisopropyl ether] + CCCCCC[n+]1ccn(C)c1.O=S(=O)([N-]S(=O)(=O)C(F)(F)F)C(F)(F)F | 2.76

// activity coefficient value for Cc1cccc(C)c1 [1,3-dimethylbenzene] + CCCCCCCCn1cc[n+](C)c1.O=S(=O)([N-]S(=O)(=O)C(F)(F)F)C(F)(F)F : 1.13

Form field activity coefficient, entry CCO [ethanol] + CCCCCCCCn1cc[n+](C)c1.O=S(=O)([N-]S(=O)(=O)C(F)(F)F)C(F)(F)F : 1.46

Value source: the NIST ThermoML archive (doi:10.1016/j.jct.2005.04.010)
